- ASSAY_SUMMARY: Phase I study CXR1002-001: plasma pharmacokinetics (LC-MS/MS)
- Assay type: in vivo, human
- CONDITION_NOTES: human, plasma, oral, 950 mg, Patient 031, 950 mg, person, plasma, 504 hr (Day 22); read-out: Concentration
MEASURED_ATTRIBUTE: concentration at 504 h (µM)
Express it in µM; write the number only.

*Q* Query: concentration at 504 h; subject: O=C(O)C(F)(F)C(F)(F)C(F)(F)C(F)(F)C(F)(F)C(F)(F)C(F)(F)F [CXR1002]
*A* 755

====

- Test system: HepG2
- ASSAY_SUMMARY: ATP depletion cytotoxicity assay 48 hr
- Assay type: cell-based, human
- CONDITION_NOTES: Homo sapiens, HepG2, 48 h, read-out: IC50 1-4 (independent replicates)
MEASURED_ATTRIBUTE: pIC50
In simple prose, pIC50 is minus the logarithm base ten of a concentration in moles per litre.

*Q* Query: pIC50; subject: O=C(O)C(F)(F)C(F)(F)C(F)(F)C(F)(F)C(F)(F)C(F)(F)C(F)(F)F [CXR1002]
*A* 3.62

====

- ASSAY_SUMMARY: Phase I study CXR1002-001: plasma pharmacokinetics (LC-MS/MS)
- Format: in vivo, human
- CONDITION_NOTES: human, plasma, oral, 1200 mg, Patient 033, 1200 mg, person, 0 hr (pre-dose)
MEASURED_ATTRIBUTE: concentration at 0 h (nM)
Express it in nM; write the number only.

*Q* Query: concentration at 0 h; subject: "O=C(O)C(F)(F)C(F)(F)C(F)(F)C(F)(F)C(F)(F)C(F)(F)C(F)(F)F"
*A* 0

====

- ASSAY_SUMMARY: Phase I study CXR1002-001: plasma pharmacokinetics (LC-MS/MS)
- Format: in vivo, human
- CONDITION_NOTES: human, plasma, oral, 950 mg, Patient 029, 950 mg, person, plasma, 864 hr (Day 37); read-out: Concentration
MEASURED_ATTRIBUTE: concentration at 864 h (µM)
Express it in µM; write the number only.

*Q* Query: concentration at 864 h; subject: O=C(O)C(F)(F)C(F)(F)C(F)(F)C(F)(F)C(F)(F)C(F)(F)C(F)(F)F [CXR1002]
*A* 1040

====

- ASSAY_SUMMARY: Phase I study CXR1002-001: plasma pharmacokinetics (LC-MS/MS)
- Assay type: in vivo, human
- CONDITION_NOTES: human, plasma, oral, 600 mg, Patient 022, 600 mg, person, plasma, 508 hr; read-out: Concentration
MEASURED_ATTRIBUTE: concentration at 508 h (µM)
Express it in µM; write the number only.

*Q* Query: concentration at 508 h; subject: O=C(O)C(F)(F)C(F)(F)C(F)(F)C(F)(F)C(F)(F)C(F)(F)C(F)(F)F [CXR1002]
*A* 519

====

- ASSAY_SUMMARY: Phase I study CXR1002-001: plasma pharmacokinetics (LC-MS/MS)
- Assay type: in vivo, human
- CONDITION_NOTES: human, plasma, po, 1200 mg, Patient 038, 1200 mg weekly oral dose, Time 338 hr; read-out: Concentration (plasma level)
MEASURED_ATTRIBUTE: concentration at 338 h
Answer format: value, then unit.

*Q* Query: concentration at 338 h; subject: "O=C(O)C(F)(F)C(F)(F)C(F)(F)C(F)(F)C(F)(F)C(F)(F)C(F)(F)F"
*A* 808 µM

Provenance of the data: patent US20130029928A1
